target_of_assay: HLA-B*15:17
assay: IEDB peptide-MHC binding, purified MHC/direct/fluorescence; filed as Kd, often an IC50 or EC50 that approximates it; bounds were set here for any values at or beyond the usual limits of such assays
assay_conditions: source organism: Escherichia coli O157:H7 str. EC869
pKd: −log10 of the molar value.
property_name: pKd

QUERY: Request the reported pKd associated with SQFNHWFGE
RESULT: ≤ 4.70

* * *

target_of_assay: HLA-A*26:03
assay: IEDB peptide-MHC binding, purified MHC/competitive/fluorescence; filed as Kd, often an IC50 or EC50 that approximates it; bounds were set here for any values at or beyond the usual limits of such assays
assay_conditions: source organism: Human immunodeficiency virus 1
property_name: Kd

QUERY: Request the reported Kd associated with VLYCVHQEI
RESULT: ≥ 20 µM

* * *

target_of_assay: HLA-B*27:05
assay: IEDB peptide-MHC binding, purified MHC/direct/fluorescence; filed as Kd, often an IC50 or EC50 that approximates it; bounds were set here for any values at or beyond the usual limits of such assays
assay_conditions: source organism: Zaire ebolavirus
property_name: pKd
Notebook: values listed as pKd are -log10 of the concentration (mol/L).

QUERY: Request the reported pKd associated with GQFLSFASL
RESULT: 6.82

* * *

target_of_assay: HLA-A*29:02
assay: IEDB peptide-MHC binding, purified MHC/competitive/radioactivity; filed as Kd, often an IC50 or EC50 that approximates it; bounds were set here for any values at or beyond the usual limits of such assays
assay_conditions: source organism: Mammarenavirus mopeiaense
property_name: Kd

QUERY: Observed Kd on HLA-A*29:02 for IKIPTHRHI , please.
RESULT: ≥ 78.9 µM

* * *

target_of_assay: HLA-B*44:02
assay: IEDB peptide-MHC binding, purified MHC/direct/fluorescence; filed as Kd, often an IC50 or EC50 that approximates it; bounds were set here for any values at or beyond the usual limits of such assays
assay_conditions: source organism: Mammarenavirus lassaense
property_name: Kd

QUERY: Request the reported Kd associated with QLDQRRALL
RESULT: ≥ 20 µM

* * *

target_of_assay: HLA-A*03:01
assay: IEDB peptide-MHC binding, purified MHC/competitive/radioactivity; filed as Kd, often an IC50 or EC50 that approximates it; bounds were set here for any values at or beyond the usual limits of such assays
assay_conditions: source organism: Vaccinia virus WR
sequences and their reported pKd
Notebook: values listed as pKd are -log10 of the concentration (mol/L).

Below: 6 sequences and their reported pKd.
> print(dat)
   ordered.residues  data.value
1        SLTIKDSSNK        5.01
2         HTCMSECVR        5.49
3        KSIHLTKTDK        6.97
4         ISRTRLYDY        6.75
5        TSVDIETAIR        5.53
6        FMSHVKSVTK        8.11

QUERY: Observed pKd on HLA-A*03:01 for MLTNAISSR , please.
RESULT: 7.88

QUERY: Observed pKd on HLA-A*03:01 for ILSDIISAEK , please.
RESULT: 9.30

QUERY: Observed pKd on HLA-A*03:01 for ALINLVQYR , please.
RESULT: 5.19

* * *

target_of_assay: HLA-C*15:02
assay: IEDB peptide-MHC binding, purified MHC/direct/fluorescence; filed as Kd, often an IC50 or EC50 that approximates it; bounds were set here for any values at or beyond the usual limits of such assays
assay_conditions: source organism: Cryptosporidium parvum
property_name: Kd (nM)
Write down the numeric answer in nM and omit the unit.

QUERY: Request the reported Kd associated with ISCQIYNAL
RESULT: 385
